biological target: cdc2/cyclinB (Homo sapiens, UniProt P06493); test: Cyclin-Dependent Kinase Assay cdc2/cyclinB
Sequence (P06493 whole entry): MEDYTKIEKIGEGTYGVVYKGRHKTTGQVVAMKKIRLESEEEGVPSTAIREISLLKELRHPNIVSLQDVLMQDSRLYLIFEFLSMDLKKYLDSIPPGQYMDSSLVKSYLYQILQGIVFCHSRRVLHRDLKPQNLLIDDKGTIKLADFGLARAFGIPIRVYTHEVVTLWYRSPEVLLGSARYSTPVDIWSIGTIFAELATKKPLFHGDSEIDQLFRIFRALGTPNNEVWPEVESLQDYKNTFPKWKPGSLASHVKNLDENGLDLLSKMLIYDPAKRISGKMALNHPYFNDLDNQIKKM
Sequence (P14635 whole entry, further chain): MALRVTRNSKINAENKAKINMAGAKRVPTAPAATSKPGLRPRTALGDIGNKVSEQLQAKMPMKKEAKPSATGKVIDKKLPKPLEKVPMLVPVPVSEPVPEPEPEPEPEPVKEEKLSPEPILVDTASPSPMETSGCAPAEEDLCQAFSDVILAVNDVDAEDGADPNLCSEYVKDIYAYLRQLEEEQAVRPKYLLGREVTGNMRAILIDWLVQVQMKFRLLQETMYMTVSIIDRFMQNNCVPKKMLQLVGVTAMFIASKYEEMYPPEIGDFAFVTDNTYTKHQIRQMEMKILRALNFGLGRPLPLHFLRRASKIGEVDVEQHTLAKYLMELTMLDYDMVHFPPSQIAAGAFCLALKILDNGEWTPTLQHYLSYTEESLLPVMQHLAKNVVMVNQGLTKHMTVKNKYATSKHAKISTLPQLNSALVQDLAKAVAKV
Answer each item with its documented pIC50.
Numbers only, as −log10 of the molar value.

Please review the following examples before continuing.
>>> print(df.to_string())
                                smiles_code  recorded_value
0  CC(C)n1c(=O)ccc2cnc(Nc3ccc(F)c(C(F)(F)F)c3)nc21            6.49
1    O=c1ccc2cnc(Nc3ccc(O)cc3F)nc2n1C1CCCC1            6.37
2  O=c1ccc2cnc(Nc3ccc(C(F)(F)F)cc3)nc2n1CC1CC1            6.19
3  CCC(CC)n1c(=O)ccc2cnc(Nc3cc(OC)c(OC)c(OC)c3)nc21            6.55
4  O=c1[nH]c2cc(Nc3ncc4ccc(=O)n(C5CCCC5)c4n3)ccc2o1            6.77

Dear reader, for each entry below, please note its pIC50.
1. CCn1c(=O)ccc2cnc(Nc3ccc(C#N)c(NC(C)=O)c3)nc21
2. CCCn1c(=O)ccc2cnc(Nc3ccc(F)c(C(F)(F)F)c3)nc21
3. CCCn1c(=O)ccc2cnc(Nc3cc(F)cc(F)c3)nc21
4. O=c1ccc2cnc(Nc3cc(F)cc(F)c3)nc2n1CC1CC1

[5.54, 6.60, 6.06, 6.48]

###

biological target: cdc2/cyclinB (Homo sapiens); test: Cyclin-Dependent Kinase Assay cdc2/cyclinB
pIC50: −log10 of the molar value.
Binary classification by pIC50, with 7 as an inclusive lower bound for class 1; all other cases are class 0.

>>> print(df.to_string())
                                   compound  class_label
0  O=c1ccc2cnc(Nc3ccc(F)c(F)c3)nc2n1C1CC2CCC1C2 (stereo not shown)      class 0
1  CCC(CC)n1c(=O)ccc2cnc(Nc3cc(Cl)c(O)c(Cl)c3)nc21      class 1
2  O=C1CSc2ccc(Nc3ncc4ccc(=O)n(C5CCCC5)c4n3)cc2N1      class 1
3  CCn1c(=O)ccc2cnc(Nc3ccc(C#N)c(C#N)c3)nc21      class 0
4  CCCCn1c(=O)ccc2cnc(Nc3cc(OC)cc(C(F)(F)F)c3)nc21      class 0

Decide: is the reported value of pIC50 for `CCCn1c(=O)ccc2cnc(Nc3ccc(C)c(F)c3)nc21` equal to or greater than 7?
class 0

Assess whether reported pIC50 for `O=c1ccc2cnc(Nc3cc(Cl)c(O)c(Cl)c3)nc2n1C1CCCC1` sits at 7 or higher.
class 0

Hi team, for `COc1ccc(Nc2ncc3ccc(=O)n(C)c3n2)cc1OC` , is the recorded pIC50 at or above 7?
class 0

For this compound, is measured pIC50 7 or higher? CC1CC(C)CN(c2ccc(Nc3ncc4ccc(=O)n(C5CCCCC5)c4n3)cc2)C1 (stereo not shown)
class 0

Quick check: does `COc1ccc(Nc2ncc3ccc(=O)n(CC(F)(F)F)c3n2)cc1OC` have pIC50 greater than or equal to 7?
class 0

Is it the case that `CCCn1c(=O)ccc2cnc(Nc3cc([N+](=O)[O-])ccc3F)nc21` has pIC50 reaching or exceeding 7?
class 0

Does pIC50 meet or surpass 7 for `CC(C)n1c(=O)ccc2cnc(Nc3cc(Cl)c(O)c(Cl)c3)nc21` ?
class 0

###

Molecular target: cdk4/D (Homo sapiens)
Sequence (P11802 whole entry): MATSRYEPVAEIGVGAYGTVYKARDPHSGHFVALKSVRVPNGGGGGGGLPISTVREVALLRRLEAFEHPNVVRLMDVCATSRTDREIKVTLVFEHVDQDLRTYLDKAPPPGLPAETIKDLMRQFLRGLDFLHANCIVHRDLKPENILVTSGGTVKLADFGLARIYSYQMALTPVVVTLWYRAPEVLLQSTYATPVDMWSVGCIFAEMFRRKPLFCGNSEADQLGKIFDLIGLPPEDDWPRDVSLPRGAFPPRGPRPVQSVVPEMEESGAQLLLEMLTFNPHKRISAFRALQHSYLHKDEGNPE
Sequence (P24385 whole entry, further chain): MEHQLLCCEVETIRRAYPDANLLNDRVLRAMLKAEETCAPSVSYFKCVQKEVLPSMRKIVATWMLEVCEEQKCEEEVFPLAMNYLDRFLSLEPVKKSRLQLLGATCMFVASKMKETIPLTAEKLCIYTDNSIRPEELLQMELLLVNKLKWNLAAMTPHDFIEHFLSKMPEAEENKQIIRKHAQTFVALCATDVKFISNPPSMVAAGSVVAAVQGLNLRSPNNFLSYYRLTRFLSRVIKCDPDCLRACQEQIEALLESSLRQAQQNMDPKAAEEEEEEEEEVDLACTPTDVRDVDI
Experiment: Cyclin-Dependent Kinase 4 (cdk4) Assay
Type: biochemical
Details: Table 1; read-out: cdk4/D IC50
Procedure: A typical assay, for instance, measures inhibitory activity against the cyclin D dependent kinase 4 enzyme (cdk4/D). […] The cdk4 assay was carried out as follows. Cyclin-Dependent Kinase 4 (cdk4) Assay All components except the ATP were added to the wells, and the plate was placed on a plate mixer for 2 minutes. […] The wells were then washed five times with 0.2 mL of 10% TCA and ^32P incorporation was determined with a beta plate counter (Wallac Inc., Gaithersburg, Md.).
property-measured: IC50 (nM)
Numbers only, in nM.

                                   compound  recorded_value
0  O=c1ccc2cnc(Nc3ccc(N4CCCCC4)cc3)nc2n1C1CCOC1 (racemic) [Example 200]             219
1  CCn1c(=O)ccc2cnc(Nc3ccccc3OCc3ccccc3)nc21 [Example 56]           25000
2  O=c1ccc2cnc(Nc3ccc(N4CCCCC4)cc3)nc2n1C1CCCCCC1 [Example 163]            31.5

Let us move to another entry and its IC50.
// lookup IC50 | system=cdk4/D (Homo sapiens) | key= CC1CN(c2ccc(Nc3ncc4ccc(=O)n(C5CC6CCC5C6)c4n3)cc2)CC(C)N1 (stereo not shown) [Example 255]
3

###

target: Cdk5/p25 (Homo sapiens); assay: Cyclin-Dependent Kinase 5 High Throughput Screening (cdk5-HTS) Assay; assay type: biochemical; conditions: high throughput screen
Rule: IC50 below 0.09 µM gives Fulfilled, anything at or above gives Not fulfilled.

Example cases with answers are listed next.
>>> df
                                   compound    class_label
0  O=c1ccc2cnc(Nc3ccc4cn[nH]c4c3)nc2n1C1CCCC1 [Example 529]      Fulfilled
1  O=c1ccc2cnc(Nc3ccc(O)c(Cl)c3)nc2n1CC(F)(F)F [Example 597]  Not fulfilled
2  CCC(C)n1c(=O)ccc2cnc(Nc3ccc(OC)c(OC)c3)nc21 (stereo not drawn) [Example 454]      Fulfilled
3  O=C1CSc2ccc(Nc3ncc4ccc(=O)n(C5CCCC5)c4n3)cc2N1 [Example 556]      Fulfilled
4  O=c1ccc2cnc(Nc3cc(Cl)c(O)c(Cl)c3)nc2n1CC1CC1 [Example 568]  Not fulfilled
5  CCCn1c(=O)ccc2cnc(Nc3cc([N+](=O)[O-])ccc3F)nc21 [Example 333]  Not fulfilled

# TODO verify IC50 < 0.09 µM strictly for this compound: O=c1ccc2cnc(Nc3ccccc3)nc2n1CC(F)(F)F [Example 601]
Not fulfilled

Identify whether the compound CC(C)n1c(=O)ccc2cnc(Nc3ccc(NC(=O)OC(C)(C)C)cc3)nc21 [Example 411] records IC50 below 0.09 µM.
Not fulfilled

A record lists O=c1ccc2cnc(Nc3ccc(F)c(C(F)(F)F)c3)nc2n1CC1CC1 [Example 570] . Is its IC50 below 0.09 µM?
Fulfilled

Does the reported IC50 of CCCCn1c(=O)ccc2cnc(Nc3ccc(NC(=O)OC(C)(C)C)cc3)nc21 [Example 381] stay below 0.09 µM?
Not fulfilled

Strictly below 0.09 µM: is that where IC50 of CCn1c(=O)ccc2cnc(Nc3cc([N+](=O)[O-])ccc3F)nc21 [Example 297] sits?
Not fulfilled

Please check: IC50 for O=C1CSc2ccc(Nc3ncc4ccc(=O)n(CC5CC5)c4n3)cc2N1 [Example 584] , strictly under 0.09 µM or not?
Fulfilled

is_below(IC50, 0.09 µM) for CCC(CC)n1c(=O)ccc2cnc(Nc3cccc(C(F)(F)F)c3)nc21 [Example 487] ?
Fulfilled

Lab note: IC50 threshold 0.09 µM. Does this compound come in strictly under it? CCC(CC)n1c(=O)ccc2cnc(Nc3cc([N+](=O)[O-])ccc3F)nc21 [Example 504]
Not fulfilled

Is IC50 of CCCCn1c(=O)ccc2cnc(Nc3ccc4[nH]ccc4c3)nc21 [Example 378] strictly below 0.09 µM?
Not fulfilled

Lab note: IC50 threshold 0.09 µM. Does this compound come in strictly under it? O=c1ccc2cnc(Nc3ccc(F)c(C(F)(F)F)c3)nc2n1C1CCCC1 [Example 534]
Fulfilled

Determine whether this compound shows IC50 lower than 0.09 µM (ties excluded): CCCCn1c(=O)ccc2cnc(Nc3ccc(OC)c(OC)c3)nc21 [Example 386]
Fulfilled

###

biological target: cdk4/D (Homo sapiens); assay: Cyclin-Dependent Kinase 4 (cdk4) Assay; format: biochemical; conditions: read-out: cdk4/D IC50
property-measured: pIC50
One number for each entry, as −log10 of the molar value.

Use these answered entries as a reference point.
In [3]: df
Out[3]:
                                   compound            system_name  recorded_value
0  O=c1ccc2cnc(Nc3cc([N+](=O)[O-])ccc3F)nc2n1CC1CC1  cdk4/D (Homo sapiens)            6.92
1  CCC(CC)n1c(=O)ccc2cnc(Nc3cc(Cl)c(N)c(Cl)c3)nc21  cdk4/D (Homo sapiens)            7.17
2  COc1cc(Nc2ncc3ccc(=O)n(C(C)C)c3n2)cc(OC)c1OC  cdk4/D (Homo sapiens)            5.47
3  CCC(C)n1c(=O)ccc2cnc(Nc3ccc4c(c3)CCCC4=O)nc21 (stereo not shown)  cdk4/D (Homo sapiens)            6.96
4  CCC(C)n1c(=O)ccc2cnc(Nc3ccc(C)c(NS(C)(=O)=O)c3)nc21 (stereo not shown)  cdk4/D (Homo sapiens)            5.54
5  CC(=O)Nc1cc(Nc2ncc3ccc(=O)n(C(C)C)c3n2)ccc1C#N  cdk4/D (Homo sapiens)            7.00

For each of the items listed, what is its pIC50?
1. CCC(C)n1c(=O)ccc2cnc(Nc3ccc(C)c(I)c3)nc21 (stereo not shown)
2. CC(C)n1c(=O)ccc2cnc(Nc3ccc4c(c3)CCCC4=O)nc21
3. CCCCn1c(=O)ccc2cnc(Nc3ccc(OC)c(Cl)c3)nc21

[7.00, 6.85, 6.32]

For every record below, what is its pIC50?
1. CCCn1c(=O)ccc2cnc(Nc3ccc(F)cc3)nc21
2. Cc1ccc(Nc2ncc3ccc(=O)n(C4CCCC4)c3n2)cc1Cl
3. O=c1ccc2cnc(Nc3ccc(O)cc3F)nc2n1CC1CC1
4. CCC(C)n1c(=O)ccc2cnc(Nc3ccc(Cl)c(C)c3)nc21 (stereo not shown)

[5.69, 7.26, 6.07, 6.89]

Where do the numbers come from? From patent US20040224958A1.
